methodSummary: Growth inhibition of human HCT116 cells assessed as cell growth at 10^-5 M incubated for 48 hrs by sulforhodamine B assay
Type: functional
testParameters: HCT-116, 48 h, read-out: Activity
Reported growth at 10 µM values for the following compounds.
observable: growth at 10 µM

| mol | result |
| --- | --- |
| c1ccc(-c2nc(Nc3ccc(-c4nc5ccccc5[nH]4)cc3)nc(N3CCOCC3)n2)cc1 | -61% |
| c1ccc2[nH]c(-c3ccc(Nc4nc(N5CCCCC5)nc(N5CCOCC5)n4)cc3)nc2c1 | -67% |
| Fc1ccc(-c2nc(Nc3ccc(-c4nc5ccccc5[nH]4)cc3)nc(N3CCOCC3)n2)cc1 | -84% |
| Clc1ccc(-c2nc(Nc3ccc(-c4nc5ccccc5[nH]4)cc3)nc(N3CCOCC3)n2)cc1 | -76% |

###

methodSummary: Growth inhibition of human OVCAR8 cells incubated for 48 hrs by sulforhodamine B assay
Format: functional
testParameters: OVCAR-8, 48 h, read-out: pTGI (converted)
Reported TGI values for the following compounds.

| mol | TGI (µM) |
| --- | --- |
| Fc1ccc(-c2nc(Nc3ccc(-c4nc5ccccc5[nH]4)cc3)nc(N3CCOCC3)n2)cc1 | 10.7 |
| c1ccc2[nH]c(-c3ccc(Nc4nc(N5CCCCC5)nc(N5CCOCC5)n4)cc3)nc2c1 | 14.1 |
| Clc1ccc(-c2nc(Nc3ccc(-c4nc5ccccc5[nH]4)cc3)nc(N3CCOCC3)n2)cc1 | 2.63 |
| c1ccc(-c2nc(Nc3ccc(-c4nc5ccccc5[nH]4)cc3)nc(N3CCOCC3)n2)cc1 | 3.39 |

###

methodSummary: Growth inhibition of human OVCAR8 cells incubated for 48 hrs by sulforhodamine B assay
Type: functional
testParameters: OVCAR-8, 48 h, read-out: GI50
Reported GI50 values for the following compounds.

| mol | GI50 [nM] |
| --- | --- |
| c1ccc(-c2nc(Nc3ccc(-c4nc5ccccc5[nH]4)cc3)nc(N3CCOCC3)n2)cc1 | 1720 |
| Fc1ccc(-c2nc(Nc3ccc(-c4nc5ccccc5[nH]4)cc3)nc(N3CCOCC3)n2)cc1 | 3260 |
| Clc1ccc(-c2nc(Nc3ccc(-c4nc5ccccc5[nH]4)cc3)nc(N3CCOCC3)n2)cc1 | 1120 |
| c1ccc2[nH]c(-c3ccc(Nc4nc(N5CCCCC5)nc(N5CCOCC5)n4)cc3)nc2c1 | 3240 |

###

System: 786-0
methodSummary: Growth inhibition of human 786-0 cells assessed as cell growth at 10^-5 M incubated for 48 hrs by sulforhodamine B assay
Type: functional
testParameters: 786-0, 48 h, read-out: Activity

| mol | unitSpec | growth at 10 µM |
| --- | --- | --- |
| c1ccc(-c2nc(Nc3ccc(-c4nc5ccccc5[nH]4)cc3)nc(N3CCOCC3)n2)cc1 | % | -88 |
| Clc1ccc(-c2nc(Nc3ccc(-c4nc5ccccc5[nH]4)cc3)nc(N3CCOCC3)n2)cc1 | % | -87 |
| c1ccc2[nH]c(-c3ccc(Nc4nc(N5CCCCC5)nc(N5CCOCC5)n4)cc3)nc2c1 | % | -78 |
| Fc1ccc(-c2nc(Nc3ccc(-c4nc5ccccc5[nH]4)cc3)nc(N3CCOCC3)n2)cc1 | % | -70 |

###

methodSummary: Growth inhibition of human UO31 cells assessed as cell growth at 10 uM incubated for 48 hrs by sulforhodamine B assay
Type: functional
testParameters: UO-31, 48 h, read-out: Activity

| mol | growth at 10 µM |
| --- | --- |
| c1ccc2[nH]c(-c3ccc(Nc4nc(N5CCCCC5)nc(N5CCOCC5)n4)cc3)nc2c1 | -37.8% |
| Fc1ccc(-c2nc(Nc3ccc(-c4nc5ccccc5[nH]4)cc3)nc(N3CCOCC3)n2)cc1 | -43.5% |
| Clc1ccc(-c2nc(Nc3ccc(-c4nc5ccccc5[nH]4)cc3)nc(N3CCOCC3)n2)cc1 | -87.6% |
| c1ccc(-c2nc(Nc3ccc(-c4nc5ccccc5[nH]4)cc3)nc(N3CCOCC3)n2)cc1 | -60.6% |

###

System: A549
methodSummary: Growth inhibition of human A549/ATCC cells assessed as cell growth at 10^-8 M incubated for 48 hrs by sulforhodamine B assay
Format: functional
testParameters: A549, 48 h, read-out: Activity
observable: growth at 0.01 µM (%)

| mol | unitSpec | recordedNumber |
| --- | --- | --- |
| c1ccc2[nH]c(-c3ccc(Nc4nc(N5CCCCC5)nc(N5CCOCC5)n4)cc3)nc2c1 | % | 94 |
| Fc1ccc(-c2nc(Nc3ccc(-c4nc5ccccc5[nH]4)cc3)nc(N3CCOCC3)n2)cc1 | % | 95 |
| c1ccc(-c2nc(Nc3ccc(-c4nc5ccccc5[nH]4)cc3)nc(N3CCOCC3)n2)cc1 | % | 103 |
| Clc1ccc(-c2nc(Nc3ccc(-c4nc5ccccc5[nH]4)cc3)nc(N3CCOCC3)n2)cc1 | % | 96 |

###

methodSummary: Growth inhibition of human HOP62 cells incubated for 48 hrs by sulforhodamine B assay
Format: functional
testParameters: HOP-62, 48 h, read-out: GI50

| mol | GI50 [nM] |
| --- | --- |
| c1ccc2[nH]c(-c3ccc(Nc4nc(N5CCCCC5)nc(N5CCOCC5)n4)cc3)nc2c1 | 1920 |
| c1ccc(-c2nc(Nc3ccc(-c4nc5ccccc5[nH]4)cc3)nc(N3CCOCC3)n2)cc1 | 1730 |
| Fc1ccc(-c2nc(Nc3ccc(-c4nc5ccccc5[nH]4)cc3)nc(N3CCOCC3)n2)cc1 | 2110 |
| Clc1ccc(-c2nc(Nc3ccc(-c4nc5ccccc5[nH]4)cc3)nc(N3CCOCC3)n2)cc1 | 1400 |

###

Test system: NCI/ADR-RES
methodSummary: Growth inhibition of human NCI/ADR-RES cells assessed as cell growth at 10^-5 M incubated for 48 hrs by sulforhodamine B assay
Format: functional
testParameters: read-out: Activity
Reported growth at 10 µM values for the following compounds.
observable: growth at 10 µM (%)

| mol | observable | recordedNumber |
| --- | --- | --- |
| Clc1ccc(-c2nc(Nc3ccc(-c4nc5ccccc5[nH]4)cc3)nc(N3CCOCC3)n2)cc1 | growth at 10 µM | -72 |
| Fc1ccc(-c2nc(Nc3ccc(-c4nc5ccccc5[nH]4)cc3)nc(N3CCOCC3)n2)cc1 | growth at 10 µM | 10 |
| c1ccc2[nH]c(-c3ccc(Nc4nc(N5CCCCC5)nc(N5CCOCC5)n4)cc3)nc2c1 | growth at 10 µM | 28 |
| c1ccc(-c2nc(Nc3ccc(-c4nc5ccccc5[nH]4)cc3)nc(N3CCOCC3)n2)cc1 | growth at 10 µM | -28 |

###

Reported TGI values for the following compounds.
Test system: M14
methodSummary: Growth inhibition of human M14 cells incubated for 48 hrs by sulforhodamine B assay
Format: functional
testParameters: M14, 48 h, read-out: TGI

| mol | TGI, µM |
| --- | --- |
| c1ccc(-c2nc(Nc3ccc(-c4nc5ccccc5[nH]4)cc3)nc(N3CCOCC3)n2)cc1 | 2.9 |
| Fc1ccc(-c2nc(Nc3ccc(-c4nc5ccccc5[nH]4)cc3)nc(N3CCOCC3)n2)cc1 | 4.03 |
| c1ccc2[nH]c(-c3ccc(Nc4nc(N5CCCCC5)nc(N5CCOCC5)n4)cc3)nc2c1 | 4.72 |
| Clc1ccc(-c2nc(Nc3ccc(-c4nc5ccccc5[nH]4)cc3)nc(N3CCOCC3)n2)cc1 | 1.48 |

###

methodSummary: Growth inhibition of human SW620 cells assessed as cell growth at 10^-6 M incubated for 48 hrs by sulforhodamine B assay
Format: functional
testParameters: SW-620, 48 h, read-out: Activity

| mol | unitSpec | growth at 1 µM |
| --- | --- | --- |
| c1ccc(-c2nc(Nc3ccc(-c4nc5ccccc5[nH]4)cc3)nc(N3CCOCC3)n2)cc1 | % | 39 |
| Fc1ccc(-c2nc(Nc3ccc(-c4nc5ccccc5[nH]4)cc3)nc(N3CCOCC3)n2)cc1 | % | 100 |
| Clc1ccc(-c2nc(Nc3ccc(-c4nc5ccccc5[nH]4)cc3)nc(N3CCOCC3)n2)cc1 | % | -72 |
| c1ccc2[nH]c(-c3ccc(Nc4nc(N5CCCCC5)nc(N5CCOCC5)n4)cc3)nc2c1 | % | 96 |

###

Reported growth at 1 µM values for the following molecules.
methodSummary: Growth inhibition of human HCT116 cells assessed as cell growth at 10^-6 M incubated for 48 hrs by sulforhodamine B assay
Format: functional
testParameters: HCT-116, 48 h, read-out: Activity

| mol | growth at 1 µM / % |
| --- | --- |
| Fc1ccc(-c2nc(Nc3ccc(-c4nc5ccccc5[nH]4)cc3)nc(N3CCOCC3)n2)cc1 | 102 |
| c1ccc2[nH]c(-c3ccc(Nc4nc(N5CCCCC5)nc(N5CCOCC5)n4)cc3)nc2c1 | 95 |
| c1ccc(-c2nc(Nc3ccc(-c4nc5ccccc5[nH]4)cc3)nc(N3CCOCC3)n2)cc1 | 16 |
| Clc1ccc(-c2nc(Nc3ccc(-c4nc5ccccc5[nH]4)cc3)nc(N3CCOCC3)n2)cc1 | -80 |
